Where do these numbers come from? They come from the supplement of paper PMC11908140.

B1: library; numbered along this chain (parent)
chain: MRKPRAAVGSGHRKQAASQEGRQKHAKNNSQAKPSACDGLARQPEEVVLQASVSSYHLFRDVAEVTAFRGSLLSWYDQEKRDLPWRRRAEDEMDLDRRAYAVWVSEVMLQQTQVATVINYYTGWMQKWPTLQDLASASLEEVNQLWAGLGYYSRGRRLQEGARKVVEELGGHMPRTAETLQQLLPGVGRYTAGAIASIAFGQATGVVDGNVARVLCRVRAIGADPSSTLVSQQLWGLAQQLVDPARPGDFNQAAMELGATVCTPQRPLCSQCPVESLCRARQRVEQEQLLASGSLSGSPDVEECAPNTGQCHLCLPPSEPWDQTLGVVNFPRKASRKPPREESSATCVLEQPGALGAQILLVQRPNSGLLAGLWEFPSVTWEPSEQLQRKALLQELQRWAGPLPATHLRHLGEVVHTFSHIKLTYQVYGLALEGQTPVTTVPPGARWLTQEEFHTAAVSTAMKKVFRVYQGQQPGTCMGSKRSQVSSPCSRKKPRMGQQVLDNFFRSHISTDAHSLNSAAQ

Variants of: B1
Assay: 8OG:A repair function score (normalized; synonymous = 0, nonsense = -1) (normalized log-likelihood score); higher = more repair activity (WT-like);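 also: cells sorted at 72 h after reporter transfection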
Conditions: with 8OG:A DNA repair reporter (GFP) in HEK-293 MUTYH KO cells
METRIC: 8OG:A repair function score
Write the number on its own, no unit after it.

Sample records with 8OG:A repair function score:
G201H = 0.0082
K464N = -0.146
P267E = -0.836
V242Y = -0.964
S367C = -0.0437

With those in mind, consider the next variant.
Name the reported 8OG:A repair function score value associated with the variant W75E
-1.57
